# assayedTarget: Leukotriene A-4 hydrolase (Homo sapiens)
# Sequence (P09960 whole entry): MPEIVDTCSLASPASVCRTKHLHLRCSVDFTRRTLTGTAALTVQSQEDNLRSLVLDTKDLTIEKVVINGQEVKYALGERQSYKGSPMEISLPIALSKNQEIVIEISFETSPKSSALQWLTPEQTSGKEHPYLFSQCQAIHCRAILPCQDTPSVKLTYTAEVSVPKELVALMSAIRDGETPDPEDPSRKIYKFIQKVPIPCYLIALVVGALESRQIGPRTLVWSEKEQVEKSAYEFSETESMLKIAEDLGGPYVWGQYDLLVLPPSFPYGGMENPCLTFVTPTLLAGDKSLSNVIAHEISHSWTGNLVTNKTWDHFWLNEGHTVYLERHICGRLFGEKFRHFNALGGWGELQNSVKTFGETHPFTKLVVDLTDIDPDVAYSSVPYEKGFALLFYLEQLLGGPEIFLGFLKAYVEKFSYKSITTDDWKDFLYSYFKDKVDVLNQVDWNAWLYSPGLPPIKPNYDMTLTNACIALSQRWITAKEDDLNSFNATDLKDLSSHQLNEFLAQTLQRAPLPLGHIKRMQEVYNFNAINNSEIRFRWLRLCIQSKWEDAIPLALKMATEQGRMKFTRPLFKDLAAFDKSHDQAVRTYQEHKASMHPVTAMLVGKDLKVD
# experimentalDetails: Inhibition of LTA4 hydrolase in human whole blood assessed as inhibition of calcium ionophore A23187-induced LTB4 production after 0.5 hrs by ELISA
measuredParameter: IC50 (µM)

Example results:
smilesRepr	IC50 (µM)
Clc1ccc(Oc2ccc(OCCN3CCCC3)cc2)cc1	0.73
Nc1ccccc1Oc1ccc(OCCN2CCCC2)cc1	0.11
O=[N+]([O-])c1cccnc1Oc1ccc(OCCN2CCCC2)cc1	34
Nc1cccc(Oc2ccc(OCCN3CCCC3)cc2)c1	0.97

P. Brc1ccc(Oc2ccc(OCCN3CCCC3)cc2)cc1
Q. c1ccc(Oc2ccc(OCCN3CCCC3)cc2)cc1
R. FC(F)(F)c1ccc(Oc2ccc(OCCN3CCCC3)cc2)cc1
Q. // ascending sort on recorded IC50 Response field: labels, in requested order.
A. P, Q, R
